assay: AUC in po dosed dog; type: ADME, organism-based, Canis lupus familiaris; conditions: plasma
PARAMETER: AUC (ng·h/mL)
Unit ng·h/mL implied. Number only.

Enquiry: Fill in the blank: the reported AUC of `C[C@@H]1CN(C(c2ccccc2)c2ccccc2)[C@@H](C)CN1C(=O)c1cc2c(C(=O)C(=O)N(C)C)cn(C)c2cc1Cl` is ____.
Return: 5610

---

assay: AUC in iv dosed dog; format: ADME, organism-based, Canis lupus familiaris; conditions: plasma
PARAMETER: AUC (ng·h/mL)
Unit ng·h/mL implied. Number only.

Enquiry: Fill in the blank: the reported AUC of `C[C@@H]1CN(C(c2ccccc2)c2ccccc2)[C@@H](C)CN1C(=O)c1cc2c(C(=O)C(=O)N(C)C)cn(C)c2cc1Cl` is ____.
Return: 3430

---

test: Oral bioavailability in rat; type: ADME, organism-based; settings: in vivo
PARAMETER: bioavailability (%)
Unit % implied. Number only.

Enquiry: Fill in the blank: the reported bioavailability of `C[C@@H]1CN(C(c2ccccc2)c2ccccc2)[C@@H](C)CN1C(=O)c1cc2c(C(=O)C(=O)N(C)C)cn(C)c2cc1Cl` is ____.
Return: 31

---

assay: Tmax in dog; assay type: ADME, organism-based, Canis lupus familiaris; settings: in vivo
PARAMETER: Tmax (h)
Unit h implied. Number only.

Enquiry: Fill in the blank: the reported Tmax of `C[C@@H]1CN(C(c2ccccc2)c2ccccc2)[C@@H](C)CN1C(=O)c1cc2c(C(=O)C(=O)N(C)C)cn(C)c2cc1Cl` is ____.
Return: 1.3

---

assay: Tmax in monkey; assay type: ADME, organism-based, Macaca mulatta; settings: rhesus monkey, in vivo
PARAMETER: Tmax

Enquiry: Fill in the blank: the reported Tmax of `C[C@@H]1CN(C(c2ccccc2)c2ccccc2)[C@@H](C)CN1C(=O)c1cc2c(C(=O)C(=O)N(C)C)cn(C)c2cc1Cl` is ____.
Return: 2 h

---

experiment: Oral bioavailability in monkey; assay type: ADME, organism-based, Macaca mulatta; conditions: rhesus monkey, in vivo
PARAMETER: bioavailability (%)
Unit % implied. Number only.

Enquiry: Fill in the blank: the reported bioavailability of C[C@@H]1CN(Cc2ccc(F)cc2)[C@@H](C)CN1C(=O)c1cc2c(C(=O)C(=O)N(C)C)cn(C)c2cc1Cl [TALMAPIMOD] is ____.
Return: 12

---

test: AUC in po dosed monkey; format: ADME, organism-based, Macaca mulatta; settings: rhesus monkey, plasma
PARAMETER: AUC (ng·h/mL)
Unit ng·h/mL implied. Number only.

Enquiry: Fill in the blank: the reported AUC of `C[C@@H]1CN(C(c2ccccc2)c2ccccc2)[C@@H](C)CN1C(=O)c1cc2c(C(=O)C(=O)N(C)C)cn(C)c2cc1Cl` is ____.
Return: 1830

---

assay: Cmax in dog; format: ADME, organism-based, Canis lupus familiaris; conditions: in vivo
PARAMETER: Cmax (ng/mL)
Unit ng/mL implied. Number only.

Enquiry: Fill in the blank: the reported Cmax of `C[C@@H]1CN(C(c2ccccc2)c2ccccc2)[C@@H](C)CN1C(=O)c1cc2c(C(=O)C(=O)N(C)C)cn(C)c2cc1Cl` is ____.
Return: 899

---

test: Clearance in po dosed dog; assay type: ADME, organism-based, Canis lupus familiaris; conditions: in vivo
PARAMETER: CL/F (mL/min/kg)
Unit mL/min/kg implied. Number only.

Enquiry: Fill in the blank: the reported CL/F of `C[C@@H]1CN(C(c2ccccc2)c2ccccc2)[C@@H](C)CN1C(=O)c1cc2c(C(=O)C(=O)N(C)C)cn(C)c2cc1Cl` is ____.
Return: 3.33
